// data source = PubChem BioAssay

# Assayed Target: Epidermal growth factor receptor (Homo sapiens) (UniProt P00533)
# Sequence (P00533 whole entry, looked up): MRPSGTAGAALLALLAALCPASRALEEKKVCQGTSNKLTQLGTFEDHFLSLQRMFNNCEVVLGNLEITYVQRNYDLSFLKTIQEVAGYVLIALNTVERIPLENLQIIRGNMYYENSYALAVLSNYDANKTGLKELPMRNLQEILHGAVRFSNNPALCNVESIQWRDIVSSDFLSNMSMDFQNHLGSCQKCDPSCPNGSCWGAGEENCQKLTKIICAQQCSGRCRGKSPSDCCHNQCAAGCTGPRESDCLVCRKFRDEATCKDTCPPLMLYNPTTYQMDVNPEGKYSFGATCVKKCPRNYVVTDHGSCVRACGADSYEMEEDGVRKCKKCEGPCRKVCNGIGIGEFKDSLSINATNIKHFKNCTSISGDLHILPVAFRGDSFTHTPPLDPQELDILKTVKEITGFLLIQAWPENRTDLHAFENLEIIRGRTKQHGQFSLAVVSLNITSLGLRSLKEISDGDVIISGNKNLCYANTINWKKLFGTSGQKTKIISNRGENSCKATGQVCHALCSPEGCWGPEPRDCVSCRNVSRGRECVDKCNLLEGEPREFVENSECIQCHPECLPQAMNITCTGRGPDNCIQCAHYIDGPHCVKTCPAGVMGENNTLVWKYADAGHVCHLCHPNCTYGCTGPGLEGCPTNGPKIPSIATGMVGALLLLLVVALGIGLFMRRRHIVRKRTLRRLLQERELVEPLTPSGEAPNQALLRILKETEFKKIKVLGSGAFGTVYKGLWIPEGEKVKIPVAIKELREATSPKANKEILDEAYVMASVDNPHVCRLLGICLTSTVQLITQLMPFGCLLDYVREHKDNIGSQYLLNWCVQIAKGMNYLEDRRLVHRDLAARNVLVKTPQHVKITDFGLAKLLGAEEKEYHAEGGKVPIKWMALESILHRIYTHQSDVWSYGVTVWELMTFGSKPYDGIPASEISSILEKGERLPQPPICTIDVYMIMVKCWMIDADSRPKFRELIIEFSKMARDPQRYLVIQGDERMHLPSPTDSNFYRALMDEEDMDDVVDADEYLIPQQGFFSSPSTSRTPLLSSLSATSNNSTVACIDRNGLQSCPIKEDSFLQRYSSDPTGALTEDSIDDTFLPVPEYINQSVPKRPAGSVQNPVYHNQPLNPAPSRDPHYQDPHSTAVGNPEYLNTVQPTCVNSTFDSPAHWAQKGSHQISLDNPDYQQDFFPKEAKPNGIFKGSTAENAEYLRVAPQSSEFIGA
# Assay Summary: EGFR binders on small-molecule microarrays, primary screen, biochemical, small-molecule microarray, 635 nm fluorescence (AID 1104);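 also: score merges 667 nm emission intensity with spot signal to noise over triplicate slides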
# Assay Conditions: EGFR binding, higher = more signal

{"columns": ["Compound", "Assayed Target", "composite z-score"],
 "data": [
  ["COCCOC(=O)N1C(=O)[C@@]2(c3cc(C#CCCO)ccc31)[C@H](C(=O)Nc1nc3ccccc3s1)[C@H]1C(=O)O[C@H](c3ccccc3)[C@H](c3ccccc3)N1[C@@H]2c1ccc(OCCO)cc1", "Epidermal growth factor receptor (Homo sapiens) (UniProt P00533)", 0.432],
  ["O=C1C2C=CC(C(O)C3CCCCC3)N(Nc3ccc([N+](=O)[O-])cc3)C2C(=O)N1c1ccccc1 (configuration not stated)", "Epidermal growth factor receptor (Homo sapiens) (UniProt P00533)", -1.54],
  ["[N-]=[N+]=NCc1ccccc1[C@@H]1OC(c2ccc(OCCCO)cc2)=N[C@]1(CCS(=O)(=O)c1ccccc1)C(=O)NCCN1CCOCC1", "Epidermal growth factor receptor (Homo sapiens) (UniProt P00533)", 0.778],
  ["O=C1c2ccccc2[C@](Cc2ccccc2I)(C(=O)NC2CC2)[C@H](c2ccc(CO)cc2)N1Cc1ccccc1", "Epidermal growth factor receptor (Homo sapiens) (UniProt P00533)", -0.375],
  ["COc1cc(OC)c(C(O)C2C=CC3C(=O)NC(=O)C3N2Nc2ccc(Cl)cc2Cl)cc1Br (configuration not stated)", "Epidermal growth factor receptor (Homo sapiens) (UniProt P00533)", -0.142],
  ["CCN(CC)c1ccc(N2CC=CC34O[C@@H]5/C=C\\CCCOC(=O)C5[C@H]3C(=O)N(CCO)[C@@H]4C2=O)cc1 (some centres not stated)", "Epidermal growth factor receptor (Homo sapiens) (UniProt P00533)", -1.28],
  ["COc1ccc(C(=O)Nc2cccc(CN3C(=O)[C@]4(O[C@H](CCO)[C@@H]([Si](C)(C)c5ccc(OC)cc5)[C@@H]4C)c4ccccc43)c2)cc1", "Epidermal growth factor receptor (Homo sapiens) (UniProt P00533)", 0.0077],
  ["C=CCNC(=O)[C@H]1[C@@H]2C(=O)O[C@@H](c3ccccc3)[C@@H](c3ccccc3)N2[C@@H](c2ccc(OCCO)cc2)[C@]12C(=O)Nc1ccc(C#CC3=CCCCC3)cc12", "Epidermal growth factor receptor (Homo sapiens) (UniProt P00533)", 0.293],
  ["CC(C)(C)OC(=O)CC[C@@]1(C(=O)NCCN2CCOCC2)N=C(c2ccc(OCCCO)cc2)O[C@@H]1c1ccccc1N=[N+]=[N-]", "Epidermal growth factor receptor (Homo sapiens) (UniProt P00533)", 0.0224],
  ["[N-]=[N+]=NCc1ccccc1C[C@]1(C(=O)O)N=C(c2ccc(OCCCO)cc2)O[C@H]1c1ccccc1N=[N+]=[N-]", "Epidermal growth factor receptor (Homo sapiens) (UniProt P00533)", 0.386],
  ["O=C1O[C@H](c2ccccc2)[C@H](c2ccccc2)N2[C@H]1[C@@H](C(=O)O)[C@]1(C(=O)Nc3ccc(C#CC4=CCCCC4)cc31)[C@H]2c1ccccc1OCCO", "Epidermal growth factor receptor (Homo sapiens) (UniProt P00533)", 0.228],
  ["COC(=O)[C@@]1(Cc2ccccc2)[C@H]2c3cc(C(=O)N4CCCC4)n(Cc4nc5ccccc5[nH]4)c3C[C@H]2CN1C(=O)c1ccccc1", "Epidermal growth factor receptor (Homo sapiens) (UniProt P00533)", -0.361],
  ["CC(C)(C)OC(=O)CC[C@@]1(C(=O)NCC(O)CO)N=C(c2ccc(OCCCO)cc2)O[C@@H]1c1ccccc1N=[N+]=[N-] (some centres not stated)", "Epidermal growth factor receptor (Homo sapiens) (UniProt P00533)", -0.468],
  ["CCCCc1cn(C[C@H](Cc2ccccc2)NC(=O)N[C@H](CO)CCc2oc(C(C)=O)c(C(=O)OC)c2C(=O)OC)nn1", "Epidermal growth factor receptor (Homo sapiens) (UniProt P00533)", 0.717],
  ["O=C1NC(=O)C2C1C=CC(C(O)c1ccccc1)N2Nc1ccc(Cl)cc1Cl (configuration not stated)", "Epidermal growth factor receptor (Homo sapiens) (UniProt P00533)", 0.531],
  ["COc1ccc(CCN2C(=O)[C@@]3(Cc4ccccc42)c2ccccc2C(=O)N(Cc2ccccc2C(F)(F)F)[C@H]3c2ccc(CO)cc2)cc1", "Epidermal growth factor receptor (Homo sapiens) (UniProt P00533)", 0.0283],
  ["O=C1NC(=O)C2C1C=CC(C(O)c1cccc3ccccc13)N2Nc1ccccn1 (configuration not stated)", "Epidermal growth factor receptor (Homo sapiens) (UniProt P00533)", 0.688],
  ["CCOC(=O)C[C@H]1[C@H](OC(=O)c2cc3ccccc3oc2=O)[C@@H](NC(=O)C2CCCCC2)c2cc(OCCCO)ccc2N1C(=O)c1ccccc1", "Epidermal growth factor receptor (Homo sapiens) (UniProt P00533)", 0.593],
  ["CC1CC/C=C\\[C@H]2OC34C=CCN(Cn5nnc6ccccc65)C(=O)[C@H]3N(C(CO)C(C)C)C(=O)[C@@H]4C2C(=O)O1 (some centres not stated)", "Epidermal growth factor receptor (Homo sapiens) (UniProt P00533)", -0.675],
  ["COc1ccc(CCNC(=O)[C@@]2(C)c3ccccc3C(=O)N(Cc3cc(F)cc(C(F)(F)F)c3)[C@H]2c2ccc(CO)cc2)cc1", "Epidermal growth factor receptor (Homo sapiens) (UniProt P00533)", -0.244],
  ["C=CCOC(=O)[C@@H]1[C@H]2C(=O)O[C@H](c3ccccc3)[C@H](c3ccccc3)N2[C@H](c2ccc(OCCOC(=O)[C@@H]3C[C@@H]4C(=O)N5CCC[C@H]5C(=O)N4[C@@H]3c3ccc(O)cc3)cc2)[C@@]12C(=O)Nc1ccc(I)cc12", "Epidermal growth factor receptor (Homo sapiens) (UniProt P00533)", 0.555],
  ["C=CCOC(=O)[C@@H]1[C@H]2C(=O)O[C@H](c3ccccc3)[C@H](c3ccccc3)N2[C@H](c2ccc(OCCOC(=O)[C@@H]3C[C@@H]4C(=O)N[C@@H](CCCCN(C)C)C(=O)N4[C@@H]3c3ccc(O)cc3)cc2)[C@@]12C(=O)Nc1ccc(I)cc12", "Epidermal growth factor receptor (Homo sapiens) (UniProt P00533)", 1.01],
  ["CC(C)OC(=O)C=C1C[C@@H](c2ccccc2C(F)(F)F)O[C@@H](c2ccccc2C(F)(F)F)O1", "Epidermal growth factor receptor (Homo sapiens) (UniProt P00533)", 0.337],
  ["COC(=O)[C@@]1(Cc2ccc(OC)cc2)[C@H]2c3cc(C(=O)N4CCCC4)n(Cc4ccc(OC)c(OC)c4)c3C[C@H]2CN1C(=O)c1ccccc1", "Epidermal growth factor receptor (Homo sapiens) (UniProt P00533)", 1.34],
  ["CCCCC=C[C@@H](NC(=O)Oc1cccc(C(F)(F)F)c1)c1ccccc1", "Epidermal growth factor receptor (Homo sapiens) (UniProt P00533)", 0.185],
  ["[N-]=[N+]=NCc1ccccc1[C@H]1OC(c2ccc(OCCCO)cc2)=N[C@@]1(Cc1ccccc1)C(=O)NCc1ccccc1", "Epidermal growth factor receptor (Homo sapiens) (UniProt P00533)", 0.169],
  ["NCCCCCNC(=O)[C@@H]1C[C@@H]2C(=O)N[C@@H](Cc3ccccc3)C(=O)N2[C@@H]1c1cccc(OCCO)c1", "Epidermal growth factor receptor (Homo sapiens) (UniProt P00533)", -0.235]
]}
